- Test system: CCRIS mutagenicity, Ames/micronucleus/aberration tests
- assay: CCRIS mutagenicity studies
- protocol.conditions: Test System: AMES SALMONELLA TYPHIMURIUM; Strain/Indicator: TA97; Metabolic Activation: RAT, LIVER, S-9, AROCLOR 1254; Method: PREINCUBATION
Active and inactive are the calls of the source. No rule for the calls is given here.
Field 'call' accepts 1.0 = active, 0.0 = inactive

>  <molecule>
CCC(Cl)C(Cl)C(Cl)CC(Cl)C(Cl)C(C)Cl (stereo not given)

>  <qualitative.label>
0.0

$$$$
>  <molecule>
CC1=NCCc2c1[nH]c1cc(O)ccc21

>  <qualitative.label>
0.0

$$$$
>  <molecule>
CCOCc1c(O)cc2c(c1O)C(=O)c1ccccc1C2=O

>  <qualitative.label>
1.0

$$$$

Qu. Test call for this molecule, please: "O"
Ans. 0.0

Qu. // next record "CC(=O)c1ccc2ccccc2c1"
Ans. 0.0

Qu. Similarly, "O=[N+]([O-])c1ccc(Nc2ccc(Nc3ccccc3)c(S(=O)(=O)O)c2)c([N+](=O)[O-])c1" ?
Ans. 1.0

Qu. Moving on to "O=C(O)COc1ccccc1"
Ans. 0.0

Qu. // next record "C=C(C)[C@@H]1CC=C(C=O)CC1"
Ans. 0.0

Qu. Cool, now "O=Cc1ccco1"
Ans. 0.0

Qu. Likewise for "COC(=O)c1ccccc1N" ?
Ans. 0.0

Qu. Field entry: "O=C(O)/C=C/C=C/C(=O)O"
Ans. 0.0

---

- System: CCRIS mutagenicity, Ames/micronucleus/aberration tests
- assay: CCRIS mutagenicity studies
- protocol.conditions: Test System: E. COLI; Strain/Indicator: WP2 UVRA; Metabolic Activation: RAT, LIVER, S-9, PHENOBARBITAL AND 5,6-BENZOFLAVONE; Method: PREINCUBATION
Activity calls are given as the source filed them. How the calls were made is not given here.
Pick one and only one: TRUE for active, FALSE for inactive

Examples with answers:
>  <compound.string>
CCOC(=O)[C@H](CCc1ccccc1)N[C@@H](C)C(=O)N1[C@H](C(=O)O)C[C@H]2CCCC[C@@H]21

>  <subject.of.test>
CCRIS mutagenicity, Ames/micronucleus/aberration tests

>  <qualitative.label>
FALSE

$$$$
>  <compound.string>
CCCCN(N=O)C(N)=O

>  <subject.of.test>
CCRIS mutagenicity, Ames/micronucleus/aberration tests

>  <qualitative.label>
TRUE

$$$$
>  <compound.string>
Cc1[nH]c(=O)c(C#N)cc1-c1ccncc1

>  <subject.of.test>
CCRIS mutagenicity, Ames/micronucleus/aberration tests

>  <qualitative.label>
FALSE

$$$$

Proceed to the following item.
Qu. For this molecule, state the assay outcome: "CNC(=C[N+](=O)[O-])NCCSCc1ccc(CN(C)C)o1"
Ans. FALSE

---

- System: CCRIS mutagenicity, Ames/micronucleus/aberration tests
- assay: CCRIS mutagenicity studies
- protocol.conditions: Test System: E. COLI; Strain/Indicator: WP2; Metabolic Activation: NONE; Method: STANDARD PLATE
The source made the active and inactive calls. No rule for the calls is given here.
A correct response names exactly one class from active, inactive

Consider the following illustrative entries.
>  <molecule>
OO

>  <qualitative.label>
inactive

$$$$
>  <molecule>
CC1(C)C(C=C(Cl)Cl)C1C(=O)OCc1cccc(Oc2ccccc2)c1 (stereo unspecified)

>  <qualitative.label>
inactive

$$$$
>  <molecule>
COc1ccc([C@@H]2CC(=O)c3c(O)cc(O[C@@H]4O[C@H](CO[C@@H]5O[C@@H](C)[C@H](O)[C@@H](O)[C@H]5O)[C@@H](O)[C@H](O)[C@H]4O)cc3O2)cc1O

>  <qualitative.label>
inactive

$$$$
>  <molecule>
CCCC(=O)C1c2cccc(O)c2C(=O)c2c(O)cccc21

>  <qualitative.label>
inactive

$$$$
>  <molecule>
O=[Si]=O

>  <qualitative.label>
inactive

$$$$

Qu. Hi, do you know how Cc1ccc(C2CO2)cc1C (stereo unspecified) came out in this test?
Ans. active

Qu. Entry to check: "CCCCN(N=O)C(N)=O"
Ans. active

Qu. Same thing, different molecule: "O=C(O)[C@@H]1CS[C@H](c2ccccc2O)N1C(=O)CCSSCCC(=O)N1[C@@H](c2ccccc2O)SC[C@H]1C(=O)O"
Ans. inactive

Qu. Cool, now "O=PO.O=PO.[Mn+2]"
Ans. inactive

Qu. And for "O=C(O)[C@@H]1CS[C@H](c2ccccc2O)N1C(=O)CCS" ?
Ans. inactive

Qu. Cool, now "C[Si](C)(C)O[Si](C)(C)O[Si](C)(C)C"
Ans. inactive

---

- Tested on: CCRIS mutagenicity, Ames/micronucleus/aberration tests
- assay: CCRIS mutagenicity studies
- protocol.conditions: Test System: AMES SALMONELLA TYPHIMURIUM; Strain/Indicator: TA1537; Metabolic Activation: NONE
Calls of active or inactive are those of the source. How the calls were made is not given here.
Choose the fitting class; nothing outside active, inactive is accepted.

>  <compound>
CCSC(=O)N1CCCCCC1

>  <qualitative.label>
inactive

$$$$
>  <compound>
O=C(N[C@@H](Cc1ccc(Cl)cc1)C(=O)O)OCc1ccccc1

>  <qualitative.label>
inactive

$$$$
>  <compound>
O=[N+]([O-])c1cccc2c1-c1cccc3c([N+](=O)[O-])ccc-2c13

>  <qualitative.label>
active

$$$$
>  <compound>
Cc1cc(S(=O)(=O)O)c2c(C)ccc(C(C)C)cc1-2

>  <qualitative.label>
inactive

$$$$
>  <compound>
FC(F)(F)C(F)(F)C(F)(F)C(F)(F)I

>  <qualitative.label>
inactive

$$$$

Qu. Assay outcome for "C#C[C@]1(O)CC[C@H]2[C@@H]3CCc4cc(O)ccc4[C@H]3CC[C@@]21C" : what was it?
Ans. inactive

Qu. Same thing, different compound: "N"
Ans. inactive

Qu. Entry "CNC(=O)CN(CCN(CCN(CC(=O)O)CC(=O)NC)CC(=O)O)CC(=O)O" please
Ans. inactive

Qu. Thanks! And NC(=O)CN1CC(O)CC1=O (stereo not given) ?
Ans. inactive

Qu. Can you handle "CC(=O)c1ccc2c(c1)C(=O)C1(CC1)O2" next?
Ans. inactive

---

- Test system: CCRIS mutagenicity, Ames/micronucleus/aberration tests
- assay: CCRIS mutagenicity studies
- protocol.conditions: Test System: AMES SALMONELLA TYPHIMURIUM; Strain/Indicator: TA100; Metabolic Activation: RAT, LIVER, S-9, PHENOBARBITAL; Method: STANDARD PLATE
Activity calls are given as the source filed them. No rule for the calls is given here.
Would you mind answering with one of these outcomes? yes (1) for active, no (0) for inactive

Solved cases below.
>  <compound.string>
Nc1ccc2[nH]c3ccccc3c2c1[N+](=O)[O-]

>  <qualitative.label>
no (0)

$$$$
>  <compound.string>
CC(C)=C/C(C)=N/Nc1nncc2ccccc12

>  <qualitative.label>
yes (1)

$$$$
>  <compound.string>
Cc1c2ccccc2c(C)c2c1ccc1ccccc12

>  <qualitative.label>
yes (1)

$$$$
>  <compound.string>
O=CC1C=COC=C1

>  <qualitative.label>
no (0)

$$$$
>  <compound.string>
CCc1c2ccccc2c(CC)c2c1ccc1ccccc12

>  <qualitative.label>
no (0)

$$$$

Qu. I'd appreciate the recorded outcome for "COc1ccc2nc3occc3c(OC)c2c1" from this test.
Ans. yes (1)

---

- Test system: CCRIS mutagenicity, Ames/micronucleus/aberration tests
- assay: CCRIS mutagenicity studies
- protocol.conditions: Test System: AMES SALMONELLA TYPHIMURIUM; Strain/Indicator: TA98; Metabolic Activation: RAT, LIVER, S-9, AROCLOR 1254; Method: STANDARD PLATE
The source made the active and inactive calls. No rule for the calls is given here.
Permitted responses: class 1 for active, class 0 for inactive

Qu. Call for entry "CCN1CCN(C(=O)N[C@@H](C(=O)N[C@@H]2C(=O)N3[C@@H]2SC(C)(C)[C@@H]3C(=O)O)c2ccccc2)C(=O)C1=O" :
Ans. class 0

Qu. Repeat for the following compound: "O=[N+]([O-])c1cc2c(cc3ccc4cccc5ccc2c3c45)o1"
Ans. class 1

Qu. Repeat with "Nc1ncnc2c1ncn2Cc1ccccc1"
Ans. class 1

Qu. Same read-out for "O=S1(=O)OC(c2cc(Br)c(O)c(Br)c2)(c2cc(Br)c(O)c(Br)c2)c2c(Br)c(Br)c(Br)c(Br)c21" ?
Ans. class 0

Qu. Ok, now "CC(=O)N(O)c1ccccc1"
Ans. class 0

Qu. What do you have for "CC(F)(F)F" ?
Ans. class 0

Qu. Subsequent entry: "O=C(/C=C/c1ccccc1)c1ccc(F)cc1"
Ans. class 0

Qu. Queued: CCCCCC(O)CC(=O)CCC1CCC(O)C(OC)C1 (configuration not stated)
Ans. class 0

Qu. Thanks! And "O=C(CBr)c1ccccc1" ?
Ans. class 0

Qu. Follow-up item: "COC(=O)[C@H]1O[C@@H]1c1ccccc1"
Ans. class 0

Qu. Next compound up: "Clc1nnc(Cl)c2ccccc12"
Ans. class 0

Qu. Queued: "NC(=O)CCC(=O)Nc1cc(Cl)c(Cl)c(Cl)c1"
Ans. class 0
